test: small-molecule microarray binders of probe aShh, primary screen, biochemical, biotinylated probe, 635/667 nm fluorescence (AID 1114); settings: higher = more signal;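 further: probe is biotin-labelled aShh protein from a stem cell growth factor screen; measures binding of labelled protein to compounds printed on the slide; score merges feature fluorescence at 667 nm with signal-to-noise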
readout: composite z-score

- C[C@@H]1NC(=O)[C@H](Cc2ccccc2)NC(=O)[C@@]23C(=O)N[C@@H](Cc4ccccc4)C2[C@H](C)[C@@]2(C)O[C@H]2C3/C=C/C/C=C\CNC1=O (stereo partly specified): -0.0474
- CCOC(=O)C[C@H]1[C@H](OC(=O)c2cc3ccccc3oc2=O)[C@@H](NC(=O)c2ccc3ccccc3c2)c2cc(OCCCO)ccc2N1C(=O)c1ccc2ccccc2n1: -0.138
- O=C1c2ccccc2[C@](Cc2ccccc2I)(C(=O)NCC(F)(F)F)[C@H](c2ccc(CO)cc2)N1Cc1ccccc1C(F)(F)F: 0.164
- O=C1OCC=C[C@H]2OC34C=CCN(Cc5ccccc5)C(=O)[C@H]3N(CCCCCO)C(=O)[C@@H]4[C@@H]12 (stereo partly specified): -0.138
- CCC(=O)[C@]12O[C@@]3([C@@H]4C(=O)OCC[C@@H]41)N(Cc1ccccc1)C(C)=C(C(=O)OC)[C@@H](c1ccccc1)N3C2=O: -0.0653
- COC(=O)Cn1c(C(=O)N2CCCC2)cc2c1C[C@H]1CN(C(=O)c3ccccc3)[C@@](Cc3ccccc3)(C(=O)OC)[C@@H]21: 0.0639
- C=CCN1C(=O)[C@@]2(O[C@@H](CCn3cc([C@H](O)c4ccccc4)nn3)[C@H]([Si](C)(C)c3ccc(OC)cc3)[C@H]2C)c2cc(N3CCOC3=O)ccc21: -0.2
- COc1ccc(NN2C(C(O)c3cc(OC)c(OC)c(OC)c3)C=CC3C(=O)N(C4CCCCC4)C(=O)C32)cc1 (stereo unspecified): -0.226
- C=C(CCCC)C(=O)CC[C@@H](OC(C)=O)c1ccccc1OCCO: 0.0278
- Cc1ccccc1C(O)C1C=CC2C(=O)N(c3ccccc3)C(=O)C2N1Nc1ccc(C#N)cc1 (stereo unspecified): 0.333
- C[N+](C)(C)CCCC[C@@H]1NC(=O)[C@H]2C[C@@H](C(=O)NCc3ccc(F)cc3)[C@@H](c3cccc(OCCO)c3)N2C1=O: -0.0904
- O=C/C=C/c1ccc(/C=C/c2ccccc2)cc1: -0.0886
- CO[C@@H]1COC(=O)CC=C[C@H](C)COC(=O)[C@H](Cc2ccccc2)NC(=O)CC=C[C@H]1C: 0.0048
- C=CC[C@@]1(C(=O)N2CCOCC2)N=C(c2ccc(OCCCO)cc2)O[C@@H]1c1ccccc1: -0.184
- [N-]=[N+]=NCc1ccccc1C[C@@]1(C(=O)O)N=C(c2ccc(OCCCO)cc2)O[C@@H]1c1ccccc1N=[N+]=[N-]: -0.138
- CCCC[C@@H]1C[C@H]1[C@@H](NC(=O)c1cccs1)c1ccc(Cl)cc1: -0.0578
- COCCOC(=O)N1C(=O)[C@@]2(c3cc(C#CCC(C(=O)OC)C(=O)OC)ccc31)[C@H](c1ccccc1OCCO)N1[C@H](c3ccccc3)[C@H](c3ccccc3)OC(=O)[C@H]1[C@@H]2C(=O)N1CCCCCCC1: 0.626
- O=C1C[C@@](C(=O)NC2CC2)(c2ccc([N+](=O)[O-])cc2)[C@@H](c2ccc(CO)cc2I)N1CC12CC3CC(CC(C3)C1)C2: 0.574
- CC(C)(C)OC(=O)CC[C@]1(C(=O)NCCN2CCOCC2)N=C(c2ccc(OCCCO)cc2)O[C@H]1c1ccccc1CN=[N+]=[N-]: 0.0469
- CO[C@H]1COC(=O)[C@H](C)NC(=O)CC=C[C@@H](C)[C@H](NS(=O)(=O)c2ccc(C)cc2)COC(=O)CC=C[C@@H]1C: -0.0709
- CC(C)[Si]1(C(C)C)OCc2cc(C3CC3)nc(-c3ccccc3)c21: -0.09
